Source listed as patent US20080188502A1.

# study.target: recombinant human GSK3β (Homo sapiens)
# test: GSK3β Scintillation Proximity Assay (ATP competition)
# condition.label: inhibition constants calculated with Km of ATP for GSK3β of 20 μM; 1 μM ATP, 1 μM biotinylated peptide substrate
Where a name gives a salt, the structure may show the parent alone.
Entry class follows Ki: lower segment = under 0.03 µM, middle segment = from 0.03 µM up to 0.04 µM, upper segment = 0.04 µM and over

>>> cat("Cc1ncc(-c2nc(Nc3ccc(S(=O)(=O)N(C)C)nc3)ncc2F)n1C1CCOCC1")
"lower segment"
>>> cat("CCN(C)C(=O)c1ccc(Nc2ncc(F)c(-c3cnc(C)n3C3CCOCC3)n2)cn1")
"middle segment"
>>> cat("Cc1ncc(-c2nc(Nc3ccc(C(=O)N(C)CC(C)C)nc3)ncc2F)n1C1CCOCC1")
"lower segment"
>>> cat("CCCN1CCN(C(=O)c2ccc(Nc3ncc(F)c(-c4cnc(C)n4C4CCOCC4)n3)cn2)CC1")
"upper segment"
>>> cat("Cc1ncc(-c2nc(Nc3ccc(C(=O)N(C)C(C)C)nc3)ncc2F)n1C1CCOCC1")
"upper segment"
>>> cat("Cc1ncc(-c2nc(Nc3ccc(C(=O)NCC(C)(C)CN(C)C)nc3)ncc2F)n1C1CCOCC1")
"upper segment"
>>> cat("COc1ncc(Nc2ncc(F)c(-c3cnc(C)n3C3CCOCC3)n2)cn1")
"upper segment"
>>> cat("Cc1ncc(-c2nc(Nc3ccc(S(=O)(=O)C(C)C)nc3)ncc2F)n1C1CCOCC1")
"middle segment"
>>> cat("CCOc1ccc(Nc2ncc(F)c(-c3cnc(C)n3C3CCOCC3)n2)cn1")
"upper segment"
>>> cat("Cc1ncc(-c2nc(Nc3ccc(C(=O)N4CCC(c5ccc(F)cc5)CC4)nc3)ncc2F)n1C1CCOCC1")
"lower segment"
>>> cat("CN1CCN(C(=O)c2ncc(Nc3ncc(F)c(-c4cnc(C(F)(F)F)n4C)n3)cc2Cl)CC1")
"upper segment"
>>> cat("CCCN(CCC)C(=O)c1ccc(Nc2ncc(F)c(-c3cnc(C)n3C3CCOCC3)n2)cn1")
"lower segment"
>>> cat("Cn1c(-c2nc(Nc3cnc(C(=O)N4CCC4)c(Cl)c3)ncc2F)cnc1C(F)(F)F [Example 45, hydrochloride]")
"middle segment"
>>> cat("Cc1ncc(-c2nc(Nc3ccc(C(=O)N(C(C)C)C(C)C)nc3)ncc2F)n1C1CCOCC1")
"upper segment"
>>> cat("Cc1ncc(-c2nc(Nc3ccc(C(=O)N4CC(C)CC(C)C4)nc3)ncc2F)n1C1CCOCC1 (stereo not shown)")
"lower segment"

###

# study.target: recombinant human GSK3β (Homo sapiens, UniProt P49841)
# Sequence (P49841 whole entry): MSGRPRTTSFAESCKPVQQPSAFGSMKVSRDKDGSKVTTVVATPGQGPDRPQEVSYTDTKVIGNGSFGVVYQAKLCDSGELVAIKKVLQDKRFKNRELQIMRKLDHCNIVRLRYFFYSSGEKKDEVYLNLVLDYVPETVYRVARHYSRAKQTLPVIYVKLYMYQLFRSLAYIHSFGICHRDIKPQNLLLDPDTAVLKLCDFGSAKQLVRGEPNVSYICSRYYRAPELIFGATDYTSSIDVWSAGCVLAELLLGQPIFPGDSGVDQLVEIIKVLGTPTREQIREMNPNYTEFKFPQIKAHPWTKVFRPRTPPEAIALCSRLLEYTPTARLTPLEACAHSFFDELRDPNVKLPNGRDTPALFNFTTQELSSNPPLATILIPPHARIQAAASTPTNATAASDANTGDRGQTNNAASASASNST
# test: GSK3β Scintillation Proximity Assay (ATP competition)
# condition.label: inhibition constants calculated with Km of ATP for GSK3β of 20 μM; 1 μM ATP, 1 μM biotinylated peptide substrate
pKi: −log10 of the molar value.
Measured pKi, listed per entry.
quantity: pKi

>>> numeric_readout("Cc1ncc(-c2nc(Nc3ccc(C(=O)N4CCCCC4)nc3)ncc2F)n1C1CCOCC1")
7.59
>>> numeric_readout("Cc1ncc(-c2nc(Nc3cnc(C(=O)N4CCC4)c(Cl)c3)ncc2F)n1C1CCOCC1")
7.96
>>> numeric_readout("Cc1ncc(-c2nc(Nc3cnc(C(=O)N4CCN(C)CC4)c(Cl)c3)ncc2F)n1C")
7.72
>>> numeric_readout("Cc1ncc(-c2nc(Nc3ccc(C(=O)N4CCN(C)CC4)cn3)ncc2F)n1C1CCOCC1")
6.18
>>> numeric_readout("Cc1ncc(-c2nc(Nc3ccc(C(=O)N4CCC(F)(F)C4)nc3)ncc2F)n1C1CCOCC1")
7.47
>>> numeric_readout("CCN1CCN(C(=O)c2ccc(Nc3ncc(F)c(-c4cnc(C)n4C4CCOCC4)n3)cn2)CC1")
7.30
>>> numeric_readout("CN1CCN(C(=O)c2ncc(Nc3ncc(F)c(-c4cnc(C(F)(F)F)n4C4CCOCC4)n3)cc2Cl)CC1")
7.64
